Tested on: Plasmodium berghei
Experiment: Screen against P. berghei liver stage (PbLuc), transformed with Luciferase, at 10uM
Assay type: functional, HepG2
Conditions: tested at 10 uM
Hit rate of the full screen: of about 69,000 compounds, about 8,600 (12%) showed an effect of 50% or more. This is one part of a sample in which strong results are shown more often than they occur.
Consider the reported INHIBITION of an entry and match it to a band in 1 = under 10%, 2 = from 10% up to 40%, 3 = 40% and over

| compound | category.label |
| --- | --- |
| CC(=O)NCC(=O)N1CCn2cc(CN(C)Cc3ccco3)nc2C1 | 3 |
| CC(C)C[C@H](N)COc1cccc(F)c1Oc1ccccc1 | 3 |
| CC(C)(C)n1ncc2c(=O)n(CC(=O)NCc3ccco3)cnc21 | 1 |
| CC(C)COC1CCN(C(=O)c2cc3ccccc3c(=O)[nH]2)CC1 | 1 |
| CC(C)(C)n1ncc2c(=O)n(CC(=O)NCc3ccccc3)cnc21 | 3 |
| COCCN1CC[C@H]2CN(Cc3ccc(C)s3)C[C@@H]2C1=O | 1 |
| O=C(NC1CCCN(c2ccccc2Cl)C1)c1c[nH]nn1 (centres undefined) | 2 |
| Cc1cc(F)ccc1N1CCCC(NC(=O)CCc2ccncc2)C1 (centres undefined) | 2 |
| COc1ccccc1C(N)CC(C)C (centres undefined) | 3 |
| CC(C)(C)n1ncc2c(=O)n(CC(=O)NCCc3ccccc3)cnc21 | 1 |
| O=c1c2sccc2nc2n1CCN(Cc1ccc(F)c(F)c1)CC2 | 2 |
| CCOc1ccc(CN2CCc3nc4ccsc4c(=O)n3CC2)cc1 | 2 |
| Cn1cccc1C(=O)N1CCC2(CC1)CC(N1CCOCC1)C2 | 1 |
| OC(COCc1ccccc1)CN1CCC(Cn2cccn2)CC1 (centres undefined) | 3 |
| O=C(NC1CCCN(c2ccccc2Cl)C1)c1nc(=O)[nH][nH]1 (centres undefined) | 1 |
| O=c1c2sccc2nc2n1CCN(Cc1ccccc1C(F)(F)F)CC2 | 3 |
| Cc1ccc(Cl)cc1N1CCC(CNC(=O)CCn2ccnc2)C1 (centres undefined) | 2 |
| Cc1nc(-c2ccsc2)ccc1C(=O)NCCN1CCN(C)CC1 | 2 |
| CCOc1ccccc1CN1CCc2nc3ccsc3c(=O)n2CC1 | 3 |
| CC(C)C[C@H](N)COc1cccc(F)c1Oc1ccc(Cl)cc1 | 3 |
| CCOC1CCN(C(=O)c2ccc(-c3cccc(C)c3)[nH]c2=O)CC1 | 1 |
| COc1ccc(OC)c(CN2CCc3nc4ccsc4c(=O)n3CC2)c1 | 2 |
| COc1cc(C)c(CN2CCc3nc4ccsc4c(=O)n3CC2)cc1C | 3 |
| Cc1ccsc1CN1CCc2nc3ccsc3c(=O)n2CC1 | 2 |

* * *

System: Plasmodium berghei
Test: Screen against P. berghei liver stage (PbLuc), transformed with Luciferase, at 10uM
Assay type: functional, HepG2
Details: tested at 10 uM
About 8,600 (12%) of roughly 69,000 compounds showed an effect of 50% or more. The entries come from a sample that favours strong results as a whole.
Dear colleague, classification is by INHIBITION, with ranges listed here: lower range: < 10%; middle range: ≥ 10% and < 40%; upper range: ≥ 40%

| compound | tgt | category.label |
| --- | --- | --- |
| CC(Cn1cccn1)NC(=O)CCc1nc(C(C)(C)C)no1 (centres undefined) | Plasmodium berghei | middle range |
| Cc1cnn(CC2CCCCN2C(=O)c2ccc3[nH]cnc3c2)c1 (centres undefined) | Plasmodium berghei | lower range |
| Cc1noc(C)c1CC(=O)N1CCc2sccc2C1 | Plasmodium berghei | middle range |
| CSc1ccc(C2CC(=O)Nc3c2c(=O)[nH]n3C(C)C)cc1 (centres undefined) | Plasmodium berghei | middle range |
| CC(C)c1noc(CN(Cc2ccccc2)C2CC2)n1 | Plasmodium berghei | upper range |
| COc1cccc(COc2nc(C(C)C)no2)c1 | Plasmodium berghei | middle range |
| CCCn1ccnc1CN1CCCC1c1ccccn1 (centres undefined) | Plasmodium berghei | upper range |
| O=C(Cc1noc(C(=O)NCCO)n1)Nc1cccc(C(F)(F)F)c1 | Plasmodium berghei | middle range |
| COc1cccc(-n2nnc(C(=O)N3CCCC(C)C3)c2C)c1 (centres undefined) | Plasmodium berghei | lower range |
| CC(C)c1noc(CN(Cc2cccs2)C2CC2)n1 | Plasmodium berghei | upper range |
| CC(C)c1noc(CN(C)C(c2ccc(F)cc2)c2cccnc2)n1 (centres undefined) | Plasmodium berghei | middle range |
| CCN(CC)Cc1ccc(C(=O)NC2CCc3cc(Br)ccc32)o1 (centres undefined) | Plasmodium berghei | middle range |
| CC(C)n1[nH]c(=O)c2c1NC(=O)CC2c1cccc(Br)c1 (centres undefined) | Plasmodium berghei | lower range |
| CN1CC(=O)N(c2ccsc2)CC12CCN(Cc1cnn(C)c1)C2 (centres undefined) | Plasmodium berghei | lower range |
| CCS(=O)(=O)c1ccccc1N1CCC(N)CC1 | Plasmodium berghei | middle range |
| CC(=O)N1N=C(c2ccco2)OC1C(=O)NCCc1ccc(O)cc1 (centres undefined) | Plasmodium berghei | upper range |
| Cc1nn(CCC(=O)N(C)Cc2c(Cl)cnn2C)cc1Br | Plasmodium berghei | middle range |
| Cc1cn[nH]c1C1COCCN1Cc1c[nH]cn1 (centres undefined) | Plasmodium berghei | middle range |
| COc1c(C2CCCN2Cc2csc(C(C)C)n2)c(C)nn1C (centres undefined) | Plasmodium berghei | middle range |
| COc1cccc(CN(C)Cc2nc(C(C)C)no2)c1 | Plasmodium berghei | upper range |
| O=S(=O)(c1cnccc1N1CCN(CCO)CC1)N1CCOCC1 | Plasmodium berghei | middle range |
| CC(C)c1noc(CN(Cc2ccc(F)cc2)C2CC2)n1 | Plasmodium berghei | upper range |
| CCCn1ccnc1CN1CCCC1c1cccc(-n2ccnc2)n1 (centres undefined) | Plasmodium berghei | upper range |
| CC(C)c1noc(C2CCCN2S(=O)(=O)Cc2ccc(F)cc2)n1 (centres undefined) | Plasmodium berghei | middle range |
| Cc1nc(C)n(C2CCCN(C(=O)c3ccc(CN(C)C)cc3)C2)n1 (centres undefined) | Plasmodium berghei | lower range |
| CC(NC(=O)c1cccs1)C(=O)Nc1cccnc1N1CCCCC1 (centres undefined) | Plasmodium berghei | lower range |
| CNC(=O)c1cccc(C2CNCCN2C(=O)c2cccc(F)c2)c1 (centres undefined) | Plasmodium berghei | upper range |
| Cc1nn(C)c(C)c1C1CCCN1Cc1cn2ccsc2n1 (centres undefined) | Plasmodium berghei | upper range |
| CCc1nccn1C1CCCN(C(=O)c2ccc3c(c2)OCO3)C1 (centres undefined) | Plasmodium berghei | middle range |
| COCCN1CCN(CC(O)c2ccc(OC(F)(F)F)cc2)CC1 (centres undefined) | Plasmodium berghei | lower range |
| Cc1nc(C)n(CC2CN(c3nnc(C)c(C)c3C#N)CCO2)n1 (centres undefined) | Plasmodium berghei | lower range |
| CC(COc1ccc(F)cc1F)NC(=O)NCCN1CCOCC1 (centres undefined) | Plasmodium berghei | lower range |
| O=C(NCc1cc[nH]n1)NCC(O)c1ccc(F)c(F)c1 (centres undefined) | Plasmodium berghei | lower range |
| COc1c(C2CCCN2Cc2nc(C)c(C)o2)c(C)nn1C (centres undefined) | Plasmodium berghei | middle range |
| COc1ccc2c(c1)[nH]c1c(N(C)CC3OCCO3)ncnc12 | Plasmodium berghei | lower range |
| CC(NC(=O)N1CCN(c2nccs2)CC1)c1nncn1C (centres undefined) | Plasmodium berghei | lower range |
| Cc1nn(C)c(C)c1C1CCCN1C(=O)Cc1cn2ccsc2n1 (centres undefined) | Plasmodium berghei | middle range |
| COc1cccc(-n2nnc(C(=O)N3CCN(C)CC3C)c2C)c1 (centres undefined) | Plasmodium berghei | upper range |
| CCc1nc(C2CCCN2Cc2nccn2Cc2ccccc2)no1 (centres undefined) | Plasmodium berghei | middle range |
| CC(C)n1[nH]c(=O)c2c1NC(=O)CC2c1cccc(O)c1 (centres undefined) | Plasmodium berghei | lower range |
| CCc1nccn1C1CCCN(C(=O)c2ccc3c(c2)OCCO3)C1 (centres undefined) | Plasmodium berghei | upper range |
| Cc1cc(C)n(CC2CN(CCOc3cccc(C#N)c3)CCO2)n1 (centres undefined) | Plasmodium berghei | middle range |
| COc1cccc(OCC(=O)N(C)c2cccnc2)c1 | Plasmodium berghei | upper range |
| CCc1ccc(C2CC(=O)Nc3c2c(=O)[nH]n3C(C)C)cc1 (centres undefined) | Plasmodium berghei | upper range |
| CC(C)n1[nH]c(=O)c2c1NC(=O)CC2c1ccncc1 (centres undefined) | Plasmodium berghei | lower range |
| CC(C)C(=O)N1CCC(C)(c2cc(O)[nH]n2)CC1 | Plasmodium berghei | lower range |
| Cc1cc(C)n(CC2CN(CCOc3ccc(C#N)cc3)CCO2)n1 (centres undefined) | Plasmodium berghei | upper range |

* * *

Tested on: Plasmodium berghei
Assay: Screen against P. berghei liver stage (PbLuc), transformed with Luciferase, at 10uM
Type: functional, HepG2
Conditions: tested at 10 uM
Screen size: about 69,000 compounds; about 8,600 (12%) showed an effect of 50% or more. Only a selection was taken, and strong results are over-represented in it overall.
Field 'label' (enum: condition met / condition not met). Set to condition met when INHIBITION is strictly under -20%; else condition not met.

| compound | category.label |
| --- | --- |
| NC(=O)CN1CCN(C(=O)c2cc(Cl)cc3cccnc23)CC1 | condition not met |
| CC(C)CC(=O)N1CC(=O)c2sc(Nc3ccc(F)cc3)nc2C1 | condition not met |
| CCc1cnc(CNC(=O)NC2CCN(C3CCCC3)CC2)s1 | condition met |
| CCCN(CCO)C(=O)c1cc(COc2ccc3c(c2)CCCC3)on1 | condition not met |
| Cc1nc(N)ccc1CC1COc2ccccc2C1 (centres undefined) | condition met |
| Cc1ccc(NC(=O)CN(C)C(=O)c2ccc(-n3cccc3)nc2)nc1 | condition not met |
| CC(NC(=O)C1CCCCC1)c1cc(O)nc(-c2cccnc2)n1 (centres undefined) | condition not met |
| COc1cccc2c1OCC(CNc1cc(N)nc(SC)n1)C2 (centres undefined) | condition not met |
| COc1cccc2c1OCC(Cc1ccc(N)nc1C)C2 (centres undefined) | condition not met |
| COc1cccc(CNC(=O)CCNS(=O)(=O)c2ccc(C)cc2)c1 | condition met |
| NC(=O)CC1CCN(C(=O)NCCc2ccc(Cl)s2)CC1 | condition not met |
| CSc1ccccc1C(=O)N1C[C@@H]2CC[C@H]1CN(C(=O)N(C)C)C2 | condition not met |
| Cn1cc(C[C@H]2[C@H](O)CCN2CC2CCOCC2)cn1 | condition not met |
| Cc1cc(CN(Cc2cccnc2)CC2CCCO2)on1 (centres undefined) | condition not met |
| Cc1cccc(NC(=O)CN(C)C(=O)c2ccc(-n3cccc3)nc2)n1 | condition not met |
| c1ccc(Cc2nc(CN3CCCC3Cn3cncn3)cs2)cc1 (centres undefined) | condition not met |
| Cc1ccc(Oc2ncccc2C(=O)N(C)CCCN(C)C)cc1 | condition not met |
| Cc1ccc(C)c(S(=O)(=O)CCNC2CCc3ncnn3C2)c1 (centres undefined) | condition met |
| CCc1nc(N2CCC3(CC2)[C@H](O)C[C@@H]3O)ncc1C | condition met |
| N#Cc1ccc(Nc2nc3c(s2)C(=O)CN(CC2CC2)C3)cc1 | condition not met |
| Cc1ccc(C(=O)N(C)CC(=O)Nc2cccc(C)n2)cn1 | condition not met |
| CCC(Nc1ccc(Oc2ccccc2OC)cc1)C(N)=O (centres undefined) | condition met |
| CCC(Nc1ccc(Oc2ccc(C#N)cc2OC)cc1)C(N)=O (centres undefined) | condition not met |
| CC(C)NC(=O)N1CC(=O)c2sc(Nc3ccc(C#N)cc3)nc2C1 | condition not met |
